The entries below are paired with their reported chemical recovery.
Experiment: chemical recovery from spiked human plasma; higher = better extraction
Settings: pooled human plasma; extraction method: solvent precipitation (ACN + hexane)

Compound | Measured
Cc1nc2n(c(=O)c1CCN1CCC(c3noc4cc(F)ccc34)CC1)CCCC2 | 73.2%

What the record says about CN1CCCC(n2nc(Cc3ccc(Cl)cc3)c3ccccc3c2=O)CC1 (stereo not given) : chemical recovery is 64.8%

# chemical recovery (compound: `c1ccc2c(c1)-c1cccc3cccc-2c13` ) is 69%

According to the records, this compound `Cc1ncc([N+](=O)[O-])n1CCO` displays chemical recovery of 70.6%

What the record says about COP(=O)(OC)OC [Trimethylphosphate] : chemical recovery is 0.912%

----------
Test: chemical recovery from spiked human plasma; higher = better extraction
Conditions: pooled human plasma; extraction method: PES+SPE (3 d PDMS equilibration then HLB SPE)
Readout Kind: chemical recovery (%)
All answers are understood in %, so give the number only.

See these solved cases before continuing.
Molecule | Readout Kind | Measured
COC(=O)CC(O)(CC(=O)OC)C(=O)OC [Trimethylcitrate] | chemical recovery | 24.5
Cc1cccc(Nc2ccccc2C(=O)O)c1C [Mefenamic acid] | chemical recovery | 60.9
Cc1nnc(-c2ccccc2)c(=O)[nH]1 [Metamitron-desamino] | chemical recovery | 53

What the record says about CC1NC(C)(C)COC1(O)c1cccc(Cl)c1 [(S,S)-Hydroxybupropion] : chemical recovery is 5.72

# molecule CC(C)CC(C)NC1=CC(=O)C(Nc2ccccc2)=CC1=O (stereo unspecified) [6PPD-quinone] ; its chemical recovery = 16.3

In plain terms, CCNc1nc(NC(C)C)[nH]c(=O)n1 [2-Hydroxyatrazine] has a documented chemical recovery of 36.1

The molecule listed as COCCc1ccc(OCC(O)CNC(C)C)cc1 (stereo unspecified) [Metoprolol] has a reported chemical recovery of 21.9

For CCOC(=O)c1ccc(O)cc1 [Ethylparaben] the molecule record lists chemical recovery as 56.1

Value of measured chemical recovery for the entry CC1(C)C(C=C(Cl)Cl)C1C(=O)OCc1cccc(Oc2ccccc2)c1 (stereo unspecified) [Permethrin] : 55

# molecule C#CCOc1ccc(CCNC(=O)C(OCC#C)c2ccc(Cl)cc2)cc1OC (stereo unspecified) [Mandipropamid] ; its chemical recovery = 70.3

chemical recovery for CC(C)NCC(O)COc1ccc(CC(=O)O)cc1 (stereo unspecified) [Metoprolol acid] is 41.1

----------
Test: chemical recovery from spiked human plasma; higher = better extraction
Conditions: pooled human plasma; extraction method: SPE only (HLB 96-well)
Readout Kind: chemical recovery (%)
Write down the numeric answer in % and omit the unit.

Some solved cases for reference:
Molecule | chemical recovery [%]
COc1c(Cl)ccc(Cl)c1C(=O)O | 37.9
COc1cc(OC)nc(NC(=O)NS(=O)(=O)c2ncccc2C(=O)N(C)C)n1 | 44.7
O=S(=O)(O)CCC(F)(F)C(F)(F)C(F)(F)C(F)(F)C(F)(F)C(F)(F)F | 35.9

Lab note: measured chemical recovery of `CC(=O)Nc1ccc(S(=O)(=O)Nc2cc(C)on2)cc1` was 37.2

response.value for CC1CCc2cc(F)cc3c(=O)c(C(=O)O)cn1c23 (stereo not given) (field: chemical recovery) = 44.8

Field chemical recovery (entry `CC(C)N1C(=O)c2ccccc2NS1(=O)=O` ) reads 41.7

Lab book: chemical recovery of `Nc1ccc(Nc2ccccc2)cc1` noted as 1.91

Item: `CCC(C)(c1ccc(O)cc1)c1ccc(O)cc1` | chemical recovery: 45.4

Note to self: chemical recovery recorded for `COC(=O)c1ccc(CNS(C)(=O)=O)cc1S(=O)(=O)NC(=O)Nc1nc(OC)cc(OC)n1` was 41.4

Measured chemical recovery of `ClC1=C(Cl)[C@]2(Cl)[C@@H]3[C@@H]4C[C@@H]([C@H]5O[C@@H]45)[C@@H]3[C@@]1(Cl)C2(Cl)Cl` : 0.809

Just so you know, measured chemical recovery for CC(C)CC(C)NC1=CC(=O)C(Nc2ccccc2)=CC1=O (stereo not given) came out at 51.9

----------
Assay: chemical recovery into PDMS from spiked human plasma; higher = better extraction
Settings: pooled human plasma; extraction method: PES with PDMS; equilibration time (d): 1
Readout Kind: chemical recovery into PDMS (%)
Please state the figure in %; there is no need to write the unit.

// solved cases for chemical recovery into PDMS follow
Compound | Units Label | chemical recovery into PDMS
CC(C)N(C(=O)SCC(Cl)=C(Cl)Cl)C(C)C [Triallate] | % | 29
CCNS(=O)(=O)c1ccccc1C [N-Ethyl-o-toluenesulfonamide] | % | 23.5
Fc1ccc([C@]2(Cn3cncn3)O[C@H]2c2ccccc2Cl)cc1 (racemic) [Epoxiconazole] | % | 43.7
CN1CCN(C)C1=O [1,3-Dimethyl-2-imidazolidinone] | % | 3.18

Kindly review the next compound as well.
Just so you know, measured chemical recovery into PDMS for CCOC(=O)CC(O)(CC(=O)OCC)C(=O)OCC [Triethylcitrate] came out at 23.6

----------
Assay: chemical recovery into PDMS from spiked human plasma; higher = better extraction
Conditions: pooled human plasma; extraction method: PES with PDMS; equilibration time (d): 6
Readout Kind: chemical recovery into PDMS (%)
Number in %, nothing else.

Molecule | chemical recovery into PDMS [%]
Cc1nc2ccccc2s1 [2-Methylbenzothiazole] | 5.9
CCCOC(=O)c1ccc(O)cc1 [Propylparaben] | 14.8
CC/C(=N\OC/C=C/Cl)C1=C(O)CC(C2CCOCC2)CC1=O (stereo not given) [Tepraloxydim] | 0.369
C[C@]12CCC(=O)C=C1CC[C@@H]1[C@@H]2CC[C@@]2(C)[C@H]1CC[C@]2(C)O [17alpha-Methyltestosterone] | 37.6
CC(C)CC(C)(O)C#CC(C)(O)CC(C)C (stereo not given) [TMDD] | 60.2
OC(Cc1ccccc1Cl)(Cn1cncn1)C1(Cl)CC1 (stereo not given) [Prothioconazole-desthio] | 38.5
CCCCOP(=O)(O)OCCCC [Di-n-butyl phosphate] | 30.9
CC1(C)O[C@@H]2C[C@H]3[C@@H]4C[C@H](F)C5=CC(=O)C=C[C@]5(C)[C@H]4[C@@H](O)C[C@]3(C)[C@]2(C(=O)CO)O1 [Flunisolide] | 11.7

chemical recovery into PDMS for CC=CC(=O)N(CC)c1ccccc1C [Crotamiton] is 36.1

For record Nc1nc(N)nc(NC2CC2)n1 [Cyromazine] the listed chemical recovery into PDMS is 1.4

chemical recovery into PDMS reading for Cn1ncc(N)c(Cl)c1=O [Methyldesphenylchloridazon] : 1.24

----------
Assay: chemical recovery by SPE of plasma after PDMS sampling; higher = better extraction
Conditions: pooled human plasma; extraction method: HLB SPE of plasma after PES; equilibration time (d): 1
Readout Kind: chemical recovery by SPE of plasma (%)
Kindly provide the numeric value in % only, without the unit symbol.

Check out these entries, answers already filled in.
Compound | chemical recovery by SPE of plasma [%]
CN1CCN(C2=Nc3cc(Cl)ccc3Nc3ccccc32)CC1 [Clozapine] | 1.19
CSc1nc(NC2CC2)nc(NC(C)(C)C)n1 [Irgarol] | 0.863
CCc1cccc(C)c1N(C(=O)CS(=O)(=O)O)C(C)COC (centres undefined) [Metolachlor ESA] | 38.9
CCOc1nc2cccc(C(=O)O)c2n1Cc1ccc(-c2ccccc2-c2nnn[nH]2)cc1 [Candesartan] | 48
CCCCCCCCCCCCCC(=O)NCCC[N+](C)(C)CCCS(=O)(=O)[O-] [Amidosulfobetaine-14] | 25.7
CCC(=O)O[C@]1(C(=O)CCl)[C@@H](C)C[C@H]2[C@@H]3CCC4=CC(=O)C=C[C@]4(C)[C@@]3(F)[C@@H](O)C[C@@]21C [Clobetasol propionate] | 5.08
O=c1cc(O)c2ccccc2o1 [4-Hydroxycoumarin] | 69.3
O=C(O)c1ccc(Cl)cc1Cl [2,4-Dichlorobenzoic acid] | 47.5

chemical recovery by SPE of plasma measured on CN(C/C=C/C#CC(C)(C)C)Cc1cccc2ccccc12 [Terbinafine] = 0.265

----------
Experiment: chemical recovery by SPE of plasma after PDMS sampling; higher = better extraction
Conditions: pooled human plasma; extraction method: HLB SPE of plasma after PES; equilibration time (d): 1
Each entry gets false if its chemical recovery by SPE of plasma stays under 30%, and true if its chemical recovery by SPE of plasma is 30% or above.

As a guide, the following entries are already answered.
Compound | Class Label
CCOC(=O)c1ccc(N(C)C)cc1 [Ethyl 4-(dimethylamino)benzoate] | false
c1ccc2c(c1)[nH]c1cnccc12 | false
COc1cc(O)c(C(=O)c2ccccc2)cc1S(=O)(=O)O | true

Assess whether reported chemical recovery by SPE of plasma for Nc1ccc2c(n1)[nH]c1ccccc12 [2-Amino-9H-pyrido[2,3-b]indole (AalphaC)] sits at 30% or higher.
false

Hello, I need to know if `CCNc1nc(Cl)nc(NCC)n1` has measured chemical recovery by SPE of plasma not below 30%. Thanks!
false

Is chemical recovery by SPE of plasma for `CC(C)(C)c1ccc(C(=O)CCCN2CCC(OC(c3ccccc3)c3ccccc3)CC2)cc1` at or above 30%?
false

Entry NC(=O)N1c2ccccc2C=Cc2cc(O)ccc21 [2-Hydroxycarbamazepine] : is its chemical recovery by SPE of plasma no less than 30%?
true

# check: chemical recovery by SPE of plasma of `O=C1Cc2cc(CCN3CCN(c4nsc5ccccc45)CC3)c(Cl)cc2N1` is greater than or equal to 30%
true
